Catalogue of molecules with associated nuclei count
Assay: reduction of polyQ htt aggregates in cells – imaging, exon1htt(103Q)mCFP cells, high-content imaging, primary screen (AID 483);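 further: compound exposure lasted 3 days before fixation; percent of the per-plate median nuclei count of sample wells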
Conditions: exon1htt(103Q)mCFP cell line, aggregate imaging, at 2 µM; measured here: cell count, toxicity
Express your answer in %, writing the number without its unit.

Reference set (5 entries):
Task item: # input molecule: `Cc1ccc(-c2nn3c(=O)c(C)nnc3s2)cc1` ; wanted: its nuclei count
Reply: 98.1

Task item: Give its nuclei count value. Item: COc1ccccc1NC(=O)N1CCCC1C(=O)NC1CCCCC1 (stereo unspecified)
Reply: 92.5

Task item: Return reported nuclei count; argument: `COC(=O)c1ccccc1NC(=O)Nc1cc(C)cc(C)n1`
Reply: 71.9

Task item: So what's the measured nuclei count for this one? `CCCCn1c(SCc2cccnc2)nc2c1c(=O)n(C)c(=O)n2C`
Reply: 90.8

Task item: Consider the molecule COc1ccc(-c2[nH]nc3c2C(c2ccccc2OC(=O)N2CCOCC2)C(C#N)=C(N)O3)cc1 (stereo unspecified) and give its measured nuclei count.
Reply: 104

Continuing:
Task item: Entry `Cc1ccc(Cn2c(SCC(C)C)nc3c2c(=O)n(C)c(=O)n3C)cc1` : reported nuclei count = ?
Reply: 111

Task item: nuclei count lookup needed for `O=c1cc(-c2ccco2)oc2ccc(Cl)cc12` , thanks.
Reply: 70

Task item: I have this molecule here, `COc1ccccc1C(=O)n1nc(-c2ccccc2)nc1N` , and I need its recorded nuclei count.
Reply: 101

Task item: I would be grateful if you could share the reported nuclei count for `Cc1cc(C(C)(C)C)c(O)c(C)c1CC1=NCCN1` .
Reply: 87.4

Task item: Given CC1c2nc3ccccc3n2C(CC(=O)NCc2ccccn2)C(=O)N1Cc1ccccc1 (stereo unspecified) , state its recorded nuclei count.
Reply: 119

Task item: Requested read-out: nuclei count. Entry: `CC(C)n1c(=NC(=O)c2ccco2)c(C#N)cc2c(=O)n3ccccc3cc21`
Reply: 104

Task item: Which nuclei count reading was recorded for the molecule `[O-][n+]1onc2c1CCc1nnc(-c3ccccc3)cc1-2` ?
Reply: 102

Task item: Consider the molecule shown here: `Cc1occc1C(=O)Nc1cccc2ccccc12` What is its recorded nuclei count?
Reply: 97.2

Task item: Record request: nuclei count value, item `CCc1cccc2c(=O)c(C(=O)NCCN3CCOCC3)c[nH]c12`
Reply: 110

Just for reference, PubChem BioAssay is where these values come from.
